system: 5-hydroxytryptamine receptor 1A (Homo sapiens, UniProt P08908)
Sequence (P08908 whole entry): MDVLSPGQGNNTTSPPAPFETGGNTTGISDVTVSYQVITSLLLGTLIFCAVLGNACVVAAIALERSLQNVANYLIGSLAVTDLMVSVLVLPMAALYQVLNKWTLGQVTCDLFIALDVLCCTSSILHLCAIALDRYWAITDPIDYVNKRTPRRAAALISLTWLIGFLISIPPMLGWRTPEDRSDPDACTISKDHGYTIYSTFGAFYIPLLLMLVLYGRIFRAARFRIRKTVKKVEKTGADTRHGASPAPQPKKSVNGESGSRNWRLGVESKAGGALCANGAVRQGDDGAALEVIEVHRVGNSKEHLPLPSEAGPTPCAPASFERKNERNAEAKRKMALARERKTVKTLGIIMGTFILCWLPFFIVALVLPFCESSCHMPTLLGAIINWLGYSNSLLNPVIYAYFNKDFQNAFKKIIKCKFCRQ
test-details: Displacement of [3H]OH-DPAT from human recombinant 5-HT1A receptor measured after 60 mins by scintillation counter method
So I've got a bunch of compounds here, and I need their IC50 values.
Give the quantity in µM, number only.

Request body: readout IC50, system 5-hydroxytryptamine receptor 1A (Homo sapiens, UniProt P08908), query "CC(C)CCO[C@@H]1[C@H]2OC(C)(C)O[C@H]2[C@H]2COCc3cn(nn3)C[C@H]3O[C@H](CCN(CCc4ccc5ccccc5c4)CC[C@H]1O2)[C@H](OCCC(C)C)[C@H]1OC(C)(C)O[C@H]13" . Return the value. 0.68

Query the reported IC50 for 5-hydroxytryptamine receptor 1A (Homo sapiens, UniProt P08908); item: "CC(C)CCO[C@@H]1[C@H]2OC(C)(C)O[C@H]2[C@H]2Cn3cc(nn3)COCCCCCCN(CCc3ccc4ccccc4c3)CC[C@H]1O2" 0.49

###

system: Substance-K receptor (Homo sapiens)
Sequence (P21452 whole entry): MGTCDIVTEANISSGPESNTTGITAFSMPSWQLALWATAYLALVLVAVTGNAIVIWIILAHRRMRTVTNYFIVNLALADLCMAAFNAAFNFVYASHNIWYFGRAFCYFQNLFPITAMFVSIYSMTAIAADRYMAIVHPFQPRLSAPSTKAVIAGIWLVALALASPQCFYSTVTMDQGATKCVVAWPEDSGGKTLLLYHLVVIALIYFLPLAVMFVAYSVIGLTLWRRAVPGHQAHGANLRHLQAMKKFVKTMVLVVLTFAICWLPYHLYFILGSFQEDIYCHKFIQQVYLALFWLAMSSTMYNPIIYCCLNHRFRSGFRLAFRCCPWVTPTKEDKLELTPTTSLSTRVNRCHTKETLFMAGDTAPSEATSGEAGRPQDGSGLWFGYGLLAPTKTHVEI
test-details: Displacement of [125I]NKA from human recombinant NK2 receptor measured after 60 mins by scintillation counter method
outcome-measure: IC50 (nM)
Return type: number; implicit unit nM.

Test system Substance-K receptor (Homo sapiens); read-out IC50; what value for "CC(C)CCO[C@@H]1[C@H]2OC(C)(C)O[C@H]2[C@H]2Cn3cc(nn3)COCCCCCCN(CCc3ccc4ccccc4c3)CC[C@H]1O2" ? 260

Request - read-out IC50 | tested on Substance-K receptor (Homo sapiens) | compound "CC(C)CCO[C@@H]1[C@H]2OC(C)(C)O[C@H]2[C@H]2COCc3cn(nn3)C[C@H]3O[C@H](CCN(CCc4ccc5ccccc5c4)CC[C@H]1O2)[C@H](OCCC(C)C)[C@H]1OC(C)(C)O[C@H]13" 3000

###

system: 5-hydroxytryptamine receptor 2B (Homo sapiens, UniProt P41595)
Sequence (P41595 whole entry): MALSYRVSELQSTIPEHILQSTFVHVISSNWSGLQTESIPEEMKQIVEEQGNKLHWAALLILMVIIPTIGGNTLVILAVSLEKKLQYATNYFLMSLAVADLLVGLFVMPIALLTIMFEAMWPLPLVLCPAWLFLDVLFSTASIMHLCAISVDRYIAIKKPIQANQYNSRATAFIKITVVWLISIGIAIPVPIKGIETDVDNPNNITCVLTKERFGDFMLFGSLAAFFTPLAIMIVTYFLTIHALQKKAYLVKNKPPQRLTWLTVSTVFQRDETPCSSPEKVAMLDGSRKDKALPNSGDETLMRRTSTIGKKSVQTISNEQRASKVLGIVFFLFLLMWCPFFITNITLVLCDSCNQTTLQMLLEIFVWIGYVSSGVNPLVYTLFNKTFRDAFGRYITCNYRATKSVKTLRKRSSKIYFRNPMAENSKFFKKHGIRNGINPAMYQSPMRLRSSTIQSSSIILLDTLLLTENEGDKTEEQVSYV
test-details: Antagonist activity at human recombinant 5-HT2B receptor in CHOK1 cells measured after 30 mins by HTRF assay
outcome-measure: pIC50
// returns pIC50 (minus log10 of molar concentration), number only

Tell me the measured pIC50 of "CC(C)CCO[C@@H]1[C@H]2OC(C)(C)O[C@H]2[C@H]2COCc3cn(nn3)C[C@H]3O[C@H](CCN(CCc4ccc5ccccc5c4)CC[C@H]1O2)[C@H](OCCC(C)C)[C@H]1OC(C)(C)O[C@H]13" , please. 4.82

Quick one: pIC50 for "CN1C[C@@H](NS(=O)(=O)N(C)C)C[C@@H]2c3cccc4c3c(cn4C)C[C@H]21" ? 8.28

Would you mind telling me what pIC50 value was observed for "CC(C)CCO[C@@H]1[C@H]2OC(C)(C)O[C@H]2[C@H]2Cn3cc(nn3)COCCCCCCN(CCc3ccc4ccccc4c3)CC[C@H]1O2" ? 5.80
